assay: in vivo
test parameters: C57BL/6J, mouse, po, 24.8 mg/kg
Description: Total AUC last in C57BL/6J mouse plasma at 24.8 mg/kg, po and 1.8 mg/kg, iv by LC-MS/MS analysis
quantity name: AUC(0-t) (µg·h/mL)

> print(dat)
                            molecule.smiles    units  measured.value
1  COC(=O)Nc1nc(C)c(S(=O)(=O)N2CCN(C[C@H](C)Nc3ncnc4c(-c5cn(C)nc5C(F)(F)F)cccc34)CC2)s1  µg·h/mL             418

====

assay: Apparent permeability across apical to basolateral side in human Caco-2 cells at 10 uM measured after 60 mins by LC-MS/MS analysis
quantity name: Papp A→B at 1 h, 10 µM (×10⁻⁶ cm/s)

> print(dat)
                            molecule.smiles           quantity.name       units  measured.value
1  COC(=O)Nc1nc(C)c(S(=O)(=O)N2CCN(C[C@H](C)Nc3ncnc4c(-c5cccnc5C)cccc34)CC2)s1  Papp A→B at 1 h, 10 µM  ×10⁻⁶ cm/s            4.17
2  COC(=O)Nc1nc(C)c(S(=O)(=O)N2CCN(C[C@H](C)Nc3ncnc4c(-c5cn(C)nc5C(F)(F)F)cccc34)CC2)s1  Papp A→B at 1 h, 10 µM  ×10⁻⁶ cm/s            2.23
3  COC(=O)Nc1nc(C)c(S(=O)(=O)N2CCN(C[C@H](C)Nc3ncnc4c(C)csc34)CC2)s1  Papp A→B at 1 h, 10 µM  ×10⁻⁶ cm/s            8.12
4  Cc1csc2c(N[C@@H](C)CN3CCN(S(=O)(=O)c4ccc(Cl)c(Cl)c4)CC3)ncnc12  Papp A→B at 1 h, 10 µM  ×10⁻⁶ cm/s            0.89

// data source = ChEMBL document CHEMBL5385906
